Test system: TNF
Assay: PBMC assay: TNF cytokine levels after LPS stimulation
Format: cell-based
Conditions: Homo sapiens, PBMC, human PBMCs, 30 min preincubation, 100 ng/ml LPS for 6 hrs, supernatant, MSD technology
Quick reference: EC50 of the listed items.

>>> observed("CN(C)c1nn(CC(=O)Nc2ccc3nncn3c2)c(=O)c2ccc(C(C)(F)F)nc12")
"> 20 µM"
>>> observed("CC(C)c1nn(CC(=O)Nc2ccc3cn[nH]c3c2)c(=O)c2ccc(C(F)(F)F)nc12")
"> 20 µM"
>>> observed("CC(C)c1nn(CC(=O)Nc2ccnnc2)c(=O)c2ccc(C(F)(F)F)nc12")
"12.6 µM"
>>> observed("CCc1nn(CC(=O)Nc2ccncn2)c(=O)c2ccc(C(C)C)nc12")
"> 20 µM"
>>> observed("CCc1nn(CC(=O)Nc2ccncn2)c(=O)c2ccc(C3CC3)nc12")
"> 20 µM"

*Q* Quick one: EC50 of CC(C)c1nn(CC(=O)Nc2ccc3nncn3c2)c(=O)c2ccc(C(C)(F)F)nc12 ?
*A* 17 µM

*Q* Could you do the same for CCc1nn(CC(=O)Nc2ccc3nncn3c2)c(=O)c2ccc(C3CC3)nc12 , please?
*A* 12.9 µM

*Q* What would you report for CC(C)c1nn(CC(=O)Nc2ccc3nccn3c2)c(=O)c2ccc(C(F)(F)F)nc12 ?
*A* > 20 µM

*Q* Same question, CC(C)c1nn(CC(=O)Nc2cncnc2)c(=O)c2ccc(C(F)(F)F)nc12 this time
*A* 11.8 µM

*Q* Another molecule: CC(C)c1nn(CC(=O)Nc2ccc3nncn3c2)c(=O)c2ccc(C(F)(F)F)nc12
*A* > 20 µM

###

Overview of reported EC50 across a group of compounds:
Tested on: TNF
Test: PBMC assay: TNF cytokine levels after LPS stimulation
Format: cell-based
Conditions: Homo sapiens, PBMC, human PBMCs, 30 min preincubation, 100 ng/ml LPS for 6 hrs, supernatant, MSD technology

// worked examples, EC50 included
>>> observed("CN(C)c1nn(CC(=O)Nc2ccc3nncn3c2)c(=O)c2ccc(C(F)(F)F)nc12")
"> 20 µM"
>>> observed("CC(C)c1nn(CC(=O)Nc2ccc3cnn(C(=O)OC(C)(C)C)c3c2)c(=O)c2ccc(C(F)(F)F)nc12")
"> 20 µM"
>>> observed("CC(C)c1nn(CC(=O)NC2CCOCC2)c(=O)c2ccc(C(F)(F)F)nc12")
"> 20 µM"
>>> observed("CN(C)c1nn(CC(=O)Nc2ccc3nncn3n2)c(=O)c2ccc(C(C)(F)F)nc12")
"> 20 µM"
>>> observed("Cc1cc(NC(=O)Cn2nc(C(C)C)c3nc(C(F)(F)F)ccc3c2=O)ccn1")
"16.6 µM"
>>> observed("CC(C)c1nn(CC(=O)Nc2ccc3nncn3n2)c(=O)c2ccc(C(C)(F)F)nc12")
"2.87 µM"

*Q* Fill blank: measured EC50 of the compound CC(C)c1nn(CC(=O)Nc2ccc3nncn3n2)c(=O)c2ccc(C(F)(F)F)nc12 is ____.
*A* > 20 µM

*Q* Please do the same for CCc1nn(CC(=O)Nc2ccc3nncn3c2)c(=O)c2ccc(OC)nc12 as well.
*A* > 20 µM

###

Test system: TNF
Experiment: PBMC assay: TNF cytokine levels after LPS stimulation
Assay type: cell-based
Settings: Homo sapiens, PBMC, human PBMCs, 30 min preincubation, 100 ng/ml LPS for 6 hrs, supernatant, MSD technology
EC50 listing for selected compounds.
I only need the number, in µM, no unit after it.

>>> observed("CCc1nn(CC(=O)N[C@H]2C[C@@](C)(O)C2)c(=O)c2ccc(C(C)C)nc12")
10.6

Then there is this compound:
*Q* I would be grateful if you could share the reported EC50 for CCc1ccc2c(=O)n(CC(=O)N[C@H]3C[C@@](C)(O)C3)nc(CC)c2n1 .
*A* 17.8

Values from patent US20240279223A1
